Can you tell me In Vitro FAAH activity, 100 nM for the items I'm about to list?
# target or system: FAAH (Rattus norvegicus, UniProt P97612)
# Construct: Frozen brains (without cerebellum) from Wistar rats were used; from tissue; host or cells: Wistar rat brain (without cerebellum), washed membrane pellets
# Sequence (P97612 whole entry): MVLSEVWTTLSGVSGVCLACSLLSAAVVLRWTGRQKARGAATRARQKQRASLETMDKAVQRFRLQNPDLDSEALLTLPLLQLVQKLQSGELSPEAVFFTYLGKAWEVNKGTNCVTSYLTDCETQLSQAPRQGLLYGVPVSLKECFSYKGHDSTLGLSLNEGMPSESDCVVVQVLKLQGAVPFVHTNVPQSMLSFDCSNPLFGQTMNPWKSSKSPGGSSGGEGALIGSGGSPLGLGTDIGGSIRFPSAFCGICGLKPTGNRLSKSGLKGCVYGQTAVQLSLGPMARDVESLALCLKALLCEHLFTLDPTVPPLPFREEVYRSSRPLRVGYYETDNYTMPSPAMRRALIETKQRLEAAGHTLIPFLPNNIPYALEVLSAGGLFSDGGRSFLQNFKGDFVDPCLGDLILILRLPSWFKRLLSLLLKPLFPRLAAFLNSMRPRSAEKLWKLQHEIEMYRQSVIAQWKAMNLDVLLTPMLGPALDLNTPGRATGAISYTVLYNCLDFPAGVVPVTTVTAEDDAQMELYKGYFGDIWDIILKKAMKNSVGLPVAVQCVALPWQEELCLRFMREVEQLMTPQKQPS
# protocol: In vitro FAAH activity in rat brain membranes, 3H-AEA substrate, % of control
# Format: biochemical, Wistar rats
# particulars: 100 nM test compound, low value = strong inhibitor

Query: Would you mind telling me what In Vitro FAAH activity, 100 nM value was observed for "Cl.O=C(N1CCN(Cc2ccccc2)CC1)n1nnc2ccccc21" ?
Result: 0 % of control

Query: Would you mind telling me what In Vitro FAAH activity, 100 nM value was observed for "CC(C)N(Cc1ccccc1)C(=O)n1cnc(-c2ccccc2)c1" ?
Result: 90.5 % of control

Query: Would you mind telling me what In Vitro FAAH activity, 100 nM value was observed for "CN(C(=O)n1cnc(-c2cccc(-c3cccc(OC(F)(F)F)c3)c2)c1)C1CCCCC1" ?
Result: 68.9 % of control

Query: Would you mind telling me what In Vitro FAAH activity, 100 nM value was observed for "CN(C(=O)n1nnc2ccccc21)c1ccc(Cl)cc1" ?
Result: 12.6 % of control

Query: Would you mind telling me what In Vitro FAAH activity, 100 nM value was observed for "CN(C(=O)n1nnc2ccc(-c3cccc(C(N)=O)c3)cc21)C1CCCCC1" ?
Result: 0 % of control
